Where do these numbers come from? They come from ChEMBL document CHEMBL3885881.

# Organism: Rattus norvegicus
# experiment: DrugMatrix - Regimen: Daily Repeat
# Format: toxicity, organism-based, Sprague-Dawley
# Parameters: regimen Daily Repeat, gender Male, age 6-8 weeks
# condition.details: in vivo, po, 1500 mg/kg, 72 h, tissue Plasma, route oral GAVAGE, dose level High, time 3 day, vehicle .5 % CMC
reported.endpoint: GLUCOSE (mg/dL)

                                   compound  readout_number
0  C[C@@H](O)[C@H]1C(=O)N2C(C(=O)O)=C(S[C@@H]3CN[C@H](C(=O)N(C)C)C3)[C@H](C)[C@H]12 [MEROPENEM]          160.67
1  Nc1nc2c(c(=O)[nH]1)N(C=O)C(CNc1ccc(C(=O)N[C@@H](CCC(=O)O)C(=O)O)cc1)CN2 (stereo not given in full) [LEUCOVORIN]             156
2  CCOC(=O)[C@H](CCc1ccccc1)N[C@@H](C)C(=O)N1CCC[C@H]1C(=O)O             143
3  CC(C)(Sc1cc(C(C)(C)C)c(O)c(C(C)(C)C)c1)Sc1cc(C(C)(C)C)c(O)c(C(C)(C)C)c1 [PROBUCOL]          153.67
4  O=c1cc(-c2ccccc2)oc2ccc3ccccc3c12 [BETA-NAPHTHOFLAVONE]          175.67
